Assay: physchem
Details: aqueous with cosolvent or surfactant or cyclodextrin, thermodynamic from solid, Estradiol and Testosterone solubility, both steroids together in aqueous HPβCD 100 mg/mL
Measured Endpoint: solubility
Answer format reminder: number followed by unit.

Short answer for `C[C@]12CC[C@H]3[C@@H](CCC4=CC(=O)CC[C@@]43C)[C@@H]1CC[C@@H]2O` : solubility was 7110 µg/mL

###

Test: physchem
Conditions: aqueous with cosolvent or surfactant or cyclodextrin, thermodynamic from solid, solubility, steroid alone in aqueous HPβCD 190 mg/mL
Measured Endpoint: solubility (mg/mL)
Express your answer in mg/mL, writing the number without its unit.

Recorded result, C[C@]12CC[C@H]3[C@@H](CCC4=CC(=O)CC[C@@]43C)[C@@H]1CC[C@@H]2O [Testosterone, testosterone] , solubility: 16.5

###

Test: physchem
Settings: aqueous with cosolvent or surfactant or cyclodextrin, thermodynamic from solid, solubility, steroid alone in aqueous HPβCD 40 mg/mL
Measured Endpoint: solubility
Number plus unit, in that order.

Summary for this molecule, `C[C@]12CC[C@H]3[C@@H](CCC4=CC(=O)CC[C@@]43C)[C@@H]1CC[C@@H]2O` : solubility is 2540 µg/mL

###

Assay: physchem
Settings: aqueous with cosolvent or surfactant or cyclodextrin, thermodynamic from solid, Estradiol and Testosterone solubility, both steroids together in aqueous HPβCD 130 mg/mL
Measured Endpoint: solubility (mg/mL)
Write the value in mg/mL as a bare number.

The recorded solubility for entry `C[C@]12CC[C@H]3[C@@H](CCC4=CC(=O)CC[C@@]43C)[C@@H]1CC[C@@H]2O` equals 10.6

###

Test: physchem
Conditions: aqueous with cosolvent or surfactant or cyclodextrin, thermodynamic from solid, solubility, steroid alone in aqueous HPβCD 100 mg/mL
Measured Endpoint: solubility
The answer consists of two parts: a number and, after it, its unit.

Measured solubility, `C[C@]12CC[C@H]3[C@@H](CCC4=CC(=O)CC[C@@]43C)[C@@H]1CC[C@@H]2O` : 6820 µg/mL

###

Assay: physchem
Details: aqueous with cosolvent or surfactant or cyclodextrin, thermodynamic from solid, solubility, steroid alone in aqueous HPβCD 70 mg/mL
Measured Endpoint: solubility (µg/mL)
Provide only the numeric value, understood in µg/mL.

For reference, reported solubility for `C[C@]12CC[C@H]3[C@@H](CCC4=CC(=O)CC[C@@]43C)[C@@H]1CC[C@@H]2O` stands at 5630

###

Assay: physchem
Conditions: aqueous with cosolvent or surfactant or cyclodextrin, thermodynamic from solid, Estradiol and Testosterone solubility, both steroids together in aqueous HPβCD 10 mg/mL
Measured Endpoint: solubility
# do not omit the unit; it follows the number

# solubility (compound: `C[C@]12CC[C@H]3[C@@H](CCC4=CC(=O)CC[C@@]43C)[C@@H]1CC[C@@H]2O` ) is 658 µg/mL

###

Test: physchem
Conditions: aqueous with cosolvent or surfactant or cyclodextrin, thermodynamic from solid, Estradiol and Testosterone solubility, both steroids together in aqueous HPβCD 40 mg/mL
Measured Endpoint: solubility (µg/mL)
Provide the reading as a plain figure in µg/mL.

Record summary for `C[C@]12CC[C@H]3[C@@H](CCC4=CC(=O)CC[C@@]43C)[C@@H]1CC[C@@H]2O` : reported solubility = 2820

###

Assay: physchem
Conditions: aqueous with cosolvent or surfactant or cyclodextrin, thermodynamic from solid, solubility, steroid alone in aqueous HPβCD 220 mg/mL
Measured Endpoint: solubility (mg/mL)
Just the number please, in mg/mL, no unit attached.

Notebook: `C[C@]12CC[C@H]3[C@@H](CCC4=CC(=O)CC[C@@]43C)[C@@H]1CC[C@@H]2O` , solubility read as 18.6
